Where do these numbers come from? They come from patent US20230322743A1.

assay.summary: Kinetic turbidimetric solubility assay
recorded.conditions: phosphate buffered saline, pH 7.4, aqueous buffer, kinetic from dmso stock
assay.readout: solubility at 5 min (µM)

>>> reading("COC(=O)C1=C(C)NC(C)=C(C(=O)OCCN(C)Cc2ccccc2)C1c1cccc([N+](=O)[O-])c1 (centres unmarked) [Nicardipine, reference compound]")
22.1
